# systemName: PSMA-expressing LNCaP cells (Homo sapiens)
# Construct: PSMA-expressing LNCaP cells; endogenous in cells; host or cells: LNCaP
# methodDescription: Binding competition assay against 3H-PSMA-617 on LNCaP cells
# conditions: LNCaP cells; 10 nM 3H-PSMA-617; competing non-radiolabeled compound 100 nM; 2 h at 37° C.; triplicates
Could you please report measured remaining activity at 0.1 µM for the items listed next?
Return type: number; implicit unit %.

// sample Cc1ccc(C[C@H](NC(=O)[C@H]2CC[C@H](CN)CC2)C(=O)NCCCC[C@H](NC(=O)N[C@@H](CCC(=O)O)C(=O)O)C(=O)O)cc1 [Example 13-A] , its remaining activity at 0.1 µM was 124

// sample COc1c(C[C@@H](NC(=O)c2ccc(CNC(=O)CN3CCN(CC(=O)O)CCN(CC(=O)O)CCN(CC(=O)O)CC3)cn2)C(=O)NCCCC[C@H](NC(=O)N[C@@H](CCC(=O)O)C(=O)O)C(=O)O)ccc2ccccc12 [Example 33a-B] , its remaining activity at 0.1 µM was 42

// sample NC[C@H]1CC[C@H](C(=O)NC(Cc2ccc3ccccc3c2)C(=O)NCCCC[C@H](NC(=O)N[C@@H](CCC(=O)O)C(=O)O)C(=O)O)CC1 (stereo partly drawn) [Example 1-A] , its remaining activity at 0.1 µM was 45

* * *

# systemName: PSMA-expressing LNCaP cells (Homo sapiens, UniProt Q04609)
# Construct: PSMA-expressing LNCaP cells; endogenous in cells; host or cells: LNCaP
# Sequence (Q04609 whole entry): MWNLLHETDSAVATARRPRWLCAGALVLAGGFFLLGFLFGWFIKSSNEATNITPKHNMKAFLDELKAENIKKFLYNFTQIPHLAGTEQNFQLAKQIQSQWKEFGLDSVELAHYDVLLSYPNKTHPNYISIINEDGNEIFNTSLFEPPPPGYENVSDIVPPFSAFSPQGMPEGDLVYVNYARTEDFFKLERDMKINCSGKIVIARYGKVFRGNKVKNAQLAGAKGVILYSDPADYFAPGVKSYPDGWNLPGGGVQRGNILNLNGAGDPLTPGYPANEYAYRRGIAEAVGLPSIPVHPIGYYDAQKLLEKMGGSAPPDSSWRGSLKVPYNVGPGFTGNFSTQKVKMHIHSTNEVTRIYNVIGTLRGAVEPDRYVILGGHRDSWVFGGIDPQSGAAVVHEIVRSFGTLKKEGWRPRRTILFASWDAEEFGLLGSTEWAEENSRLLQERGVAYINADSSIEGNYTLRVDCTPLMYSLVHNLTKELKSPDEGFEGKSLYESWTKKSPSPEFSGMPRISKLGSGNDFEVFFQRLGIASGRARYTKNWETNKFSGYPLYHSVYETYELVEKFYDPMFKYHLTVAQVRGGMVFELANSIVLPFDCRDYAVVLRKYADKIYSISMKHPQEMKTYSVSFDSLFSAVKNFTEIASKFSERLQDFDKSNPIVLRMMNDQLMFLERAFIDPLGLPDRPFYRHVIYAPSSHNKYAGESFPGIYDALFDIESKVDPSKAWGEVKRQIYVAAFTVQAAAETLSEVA
# methodDescription: Binding competition assay against 3H-PSMA-617 on LNCaP cells
# conditions: LNCaP cells; 10 nM 3H-PSMA-617; competing non-radiolabeled compound 10 nM; 2 h at 37° C.; triplicates
Could you please report measured remaining activity at 0.01 µM for the items listed next?
Return type: number; implicit unit %.

// sample `O=C(O)CC[C@H](NC(=O)N[C@@H](CCCCNC(=O)[C@H](Cc1ccc2ccccc2c1)NC(=O)c1ccc(CNC(=O)CN2CCN(CC(=O)O)CCN(CC(=O)O)CCN(CC(=O)O)CC2)cc1)C(=O)O)C(=O)O` , its remaining activity at 0.01 µM was 59

// sample `NC[C@H]1CC[C@H](C(=O)N(Cc2cccc(=O)[nH]2)[C@@H](Cc2ccc3ccccc3c2)C(=O)NCCCC[C@H](NC(=O)N[C@@H](CCC(=O)O)C(=O)O)C(=O)O)CC1` , its remaining activity at 0.01 µM was 70

// sample Cn1ccc(C(=O)NCCN(CCNC(=O)c2ccn(C)c(=O)c2O)CC(Cc2ccc(NC(=O)CCC(=O)N[C@H](CCCNC(=N)N)C(=O)N[C@H](CCCNC(=N)N)C(=O)NC[C@H]3CC[C@H](C(=O)N[C@@H](Cc4ccc5ccccc5c4)C(=O)NCCCCC(NC(=O)N[C@@H](CCC(=O)O)C(=O)O)C(=O)O)CC3)cc2)CN(CCNC(=O)c2ccn(C)c(=O)c2O)CCNC(=O)c2ccn(C)c(=O)c2O)c(O)c1=O (stereo partly drawn) , its remaining activity at 0.01 µM was 78
